src = PubChem BioAssay (NCI)

- Tested on: U251 CNS
- experiment_summary: NCI tumour cell line growth inhibition, 48 h
measured_parameter: TGI (µM)

compound: COc1ccc2[nH]c(-c3ccccc3)c(C=C(C#N)C#N)c2c1
quantity_unit: µM
limit_operator: =
numeric_readout: 25.5
//
compound: CN(C)CCNC(=O)c1cccc2ccc(-c3cccnc3)nc12
quantity_unit: µM
limit_operator: =
numeric_readout: 19.3
//
compound: COc1cccc2c1C(=O)c1c(O)c3c(c(O)c1C2=O)C[C@@](O)(C(=O)CO)C[C@@H]3OC1CC(OC(C)=O)C(OC(C)=O)C(C)O1 (some centres undefined)
quantity_unit: µM
limit_operator: =
numeric_readout: 7.93
//
compound: CN(C)CCn1c(=O)oc2cc(C(=O)CN3CCOCC3)ccc21
quantity_unit: µM
limit_operator: >
numeric_readout: 100
//
compound: COCOc1cc(OC)c(Br)cc1C/C(=N/O)C(=O)OC
quantity_unit: µM
limit_operator: >
numeric_readout: 100
//
compound: C=CCOc1ccc(C2(c3ccc(OCC=C)cc3)C(=O)Nc3ccccc32)cc1
quantity_unit: µM
limit_operator: >
numeric_readout: 10
//
compound: COc1ccc2c(c1)CC[C@@H]1[C@@H]2CC[C@]2(C)c3[nH]ncc3C[C@@H]12
quantity_unit: µM
limit_operator: >
numeric_readout: 50
//
compound: CN(C)C(=S)/N=c1\ssc(=S)n1-c1ccccc1
quantity_unit: µM
limit_operator: =
numeric_readout: 30.2
//
compound: COc1cc(C(C#N)NNC(=O)Cc2ccccc2)cc(OC)c1OC (centres undefined)
quantity_unit: µM
limit_operator: >
numeric_readout: 100

###

- System: UACC-257 melanoma
- experiment_summary: NCI tumour cell line growth inhibition, 48 h
Measured TGI, listed per entry for reference.
measured_parameter: TGI

compound: COc1ccc2[nH]c3c(C)c4cc[n+](C)cc4c(C)c3c2c1
result: 54.5 µM [middle of 4 runs]
//
compound: N#CC(c1ccccc1)N(CCc1ccccc1)C(=O)c1ccccc1 (stereo unspecified)
result: > 100 µM
//
compound: Cc1cc(C(=O)N[C@@H](CCC(=O)O)C(=O)O)sc1CC[C@@H]1CNc2nc(N)[nH]c(=O)c2C1
result: > 100 µM
//
compound: O=C1OCC2=C1C(c1cccc(C(F)(F)F)c1)c1cc3c(cc1N2CCO)OCO3 (stereo unspecified)
result: > 50 µM
//
compound: COc1cc2cn3c4ccc(O)cc4nc(N)c3c2cc1OC
result: 6.94 µM
//
compound: C[N+]1(C)CCOC(O)(c2ccccc2)C1 (stereo unspecified)
result: > 100 µM
//
compound: OC(COc1cccc2ccccc12)CN1CCN(c2ccc(Cl)cc2)CC1 (stereo unspecified)
result: > 100 µM
//
compound: CCCCCCCC/C=C\CCCCCCCC(=O)OC[C@]1(CO)CCC(=O)O1
result: > 100 µM
//
compound: COc1ccc2c(c1)C(=O)c1c-2c(OCCN(C)C)nc2cc(OC)ccc12
result: 9.96 µM
//
compound: CC(OC1CC(=O)CC2C(=O)C=CC(=O)C12)c1ccccc1 (stereo unspecified)
result: 35.4 µM
//
compound: C[n+]1c2ccccc2c(C(=O)NC(CCCN=C(N)N)C(=O)O)c2ccccc21 (stereo unspecified)
result: > 100 µM
//
compound: COc1ccc(-c2nn(-c3ccc(NC(=O)Nc4ccc(Cl)c(Cl)c4)cc3)cc2-c2ccncc2)cc1Cl
result: 11.6 µM
//
compound: Cc1ccc(S(=O)(=O)NC(=O)NC(C(=O)O)C(C)O)cc1 (stereo unspecified)
result: > 100 µM
//
compound: Clc1nc(Cl)c2ncn(C/C=C/Cn3cnc4c(Cl)nc(Cl)nc43)c2n1
result: 27.8 µM
//
compound: Nc1c(S(=O)(=O)O)cc(Nc2cccc(S(N)(=O)=O)c2)c2c1C(=O)c1ccccc1C2=O
result: > 100 µM
//
compound: COc1nc2c(cc1S(=O)(=O)c1ccccc1)CCc1c-2cnn1Cc1ccccc1
result: > 100 µM
//
compound: COc1cc([N+](=O)[O-])c(S(=O)(=O)O)cc1N
result: > 100 µM
//
compound: CCCCC1C(=O)N(c2ccc(S(=O)(=O)Nc3ccccn3)cc2)N(c2ccc(O)c(C(=O)O)c2)C1=O (stereo unspecified)
result: > 100 µM
//
compound: CN(C(=O)[C@@H](NC(=O)OC(C)(C)C)c1ccccc1)[C@H]1CCCC[C@@H]1N1CCCC1
result: > 100 µM
//
compound: Fc1c[c-]c(-c2ccccn2)c(F)c1.[CH3-].[Pt+2].c1ccc([PH+](c2ccccc2)c2ccccn2)cc1
result: 5.07 µM
//
compound: COC(=O)c1ccc(/C=C2\Cc3ccccc3C2=O)cc1
result: > 100 µM

###

- System: UO-31 renal
- experiment_summary: NCI tumour cell line growth inhibition, 48 h; in the data active means GI50 below about 0.43 µM; inactive means the rest
Outcomes: 1 for active, 0 for inactive

compound: COc1ccc2[nH]c(-c3ccccc3)c(C=C(C#N)C#N)c2c1
cat: 0

compound: CCN1/C(=C/C=C/C=C/c2sc3ccccc3[n+]2CC)Sc2ccccc21
cat: 0

compound: O=C1c2ccc3c4c(ccc(c24)C(=O)N1CCCNCc1ccccc1)C(=O)N(CCCNCc1ccccc1)C3=O
cat: 1

compound: COc1cc(/C=C2\CCCC3C2=Nc2ccccc2NC3c2cc(OC)c(OC)c(OC)c2)cc(OC)c1OC (stereo not drawn)
cat: 0

compound: O=C(C[C@@]1(O)C(=O)Nc2c(Cl)ccc(Cl)c21)c1ccc(C2CC2)cc1
cat: 0

compound: COc1ccc2c(c1)C(=O)c1c-2c(OCCN(C)C)nc2cc(OC)ccc12
cat: 0

compound: COc1cccc2c1C(=O)c1c(O)c3c(c(O)c1C2=O)C[C@@](O)(C(=O)CO)C[C@@H]3OC1CC(OC(C)=O)C(OC(C)=O)C(C)O1 (stereo partly drawn)
cat: 1

compound: O=S(=O)(CC#CCCCOCC#Cc1ccccc1C#CCS(=O)(=O)c1ccccc1)c1ccccc1
cat: 0

compound: CCc1nc(-n2c(CC)nc3ccccc3c2=O)nc(N)c1-c1ccc(Cl)cc1
cat: 0

compound: CN(C)CCN1C(=O)c2cccc3c(N)ccc(c23)C1=O
cat: 0

compound: COc1cc(/C=C/C(=O)NC[C@]2(O)CCC3C4CCc5cc(O)ccc5C4CCC32C)ccc1O (stereo partly drawn)
cat: 0

compound: C[C@H](C(=O)N[C@@H](Cc1ccc(-c2ccccc2)cc1)C(=O)NC1CC(C)(C)N(C)C(C)(C)C1)c1ccc(-c2ccccc2)c(F)c1
cat: 0

compound: Cc1c2cnccc2c(C)c2c1c1cc(C(=O)O)ccc1n2C
cat: 0

###

Below: a set of entries, each annotated with reported TGI.
- Tested on: MDA-MB-231 breast
- experiment_summary: NCI tumour cell line growth inhibition, 48 h

molecule: N#CC(c1ccccc1)N(CCc1ccccc1)C(=O)c1ccccc1 (stereo unspecified)
quantity_unit: µM
limit_operator: >
TGI: 100

molecule: CC(=O)c1cccc(Nc2c3ccccc3nc3occc23)c1
quantity_unit: µM
limit_operator: =
TGI: 67.7

molecule: COC(=O)CCCC(=O)NC1=C(Nc2ccccc2)C(=O)c2ccccc2C1=O
quantity_unit: µM
limit_operator: =
TGI: 43.8

molecule: CCOc1ncn(-c2ccc(NC(=S)Nc3cnccn3)cc2)n1
quantity_unit: µM
limit_operator: >
TGI: 10

molecule: COc1cc(C2=C(C)[C@@H]3CN(CC=C3c3ccc(Cl)cc3)C2)c(S(=O)(=O)O)cc1OC
quantity_unit: µM
limit_operator: >
TGI: 100

molecule: Cc1cc(S(N)(=O)=O)c(S/C(=N\Nc2ccc([N+](=O)[O-])cc2)c2ccc(O)cc2)cc1Cl
quantity_unit: µM
limit_operator: =
TGI: 4.67

molecule: CCN(CC)CCSc1n[nH]c(-c2c[nH]c3nc(C)ccc3c2=O)n1
quantity_unit: µM
limit_operator: >
TGI: 100

molecule: OC12CC3c4ccccc4NC3C3Oc4cccc5c4C31CCN(CC1CC1)C2C5 (stereo unspecified)
quantity_unit: µM
limit_operator: =
TGI: 32.4

molecule: CSC1=C(C#N)C(=O)N(c2ccc(Cl)cc2)C(=O)C1C#N (stereo unspecified)
quantity_unit: µM
limit_operator: >
TGI: 100

molecule: N#Cc1c(N)c2c(c(-c3ccccc3)c1-c1ccccc1)C(=O)N(Nc1ccccc1)C2=O
quantity_unit: µM
limit_operator: >
TGI: 100

molecule: CN(C)CCN1C(=O)c2cccc3c(N)ccc(c23)C1=O
quantity_unit: µM
limit_operator: >
TGI: 25

molecule: CCCCCCCC/C=C\CCCCCCCC(=O)OC[C@]1(CO)CCC(=O)O1
quantity_unit: µM
limit_operator: >
TGI: 100

molecule: COc1ccc(S(=O)(=O)NC2=NCCN2C(=S)SN2CCn3c2nsc3=S)cc1OC
quantity_unit: µM
limit_operator: >
TGI: 100

molecule: COc1ccc2[nH]c3c([N+](=O)[O-])ccc(Cl)c3c(=O)c2c1
quantity_unit: µM
limit_operator: =
TGI: 32.8

molecule: CC(C)(Cl)C(Br)CCC(CBr)=C(Cl)CCl (mixture of isomers)
quantity_unit: µM
limit_operator: =
TGI: 3.5

molecule: Cc1c2cnccc2c(C)c2c1c1cc(C(=O)O)ccc1n2C
quantity_unit: µM
limit_operator: =
TGI: 5.81

molecule: CSC1=Nc2c(c(C)c(-c3ccccc3)n2CCCCl)C2=NC(=O)CN12
quantity_unit: µM
limit_operator: =
TGI: 23.8

molecule: COc1cccc2c1C(=O)c1c(O)c3c(c(O)c1C2=O)C[C@@](O)(C(=O)CO)C[C@@H]3OC1CC(OC(C)=O)C(OC(C)=O)C(C)O1 (stereo partly specified)
quantity_unit: µM
limit_operator: =
TGI: 15.6

molecule: CC(=O)/C=C(/C=N/O)c1ccccc1
quantity_unit: µM
limit_operator: >
TGI: 100

molecule: C[n+]1c2cc(N)ccc2cc2ccc(N)cc21 (tested in a mixture with another compound)
quantity_unit: µM
limit_operator: =
TGI: 2.5

molecule: N#Cc1nc(Sc2cnsn2)c(Sc2cnsn2)nc1C#N
quantity_unit: µM
limit_operator: =
TGI: 48.7
